Where these numbers come from: patent US20220281848A1

Kindly supply the reported damage to plant, ALOMY values for the records listed here.
- Test system: plants
- test_protocol: Test D pre-emergence, other plants of Tables D1 and D3
- Assay type: in vivo
- setup_conditions: pre-emergence, rate 60, 20 DAA, 100=total damage, 0=no damage
Give bare numbers.

molecule: COc1c(F)cccc1NC(=O)C1C(=O)N(C)CC1c1cc(C(F)(F)F)n(C)n1 (racemic) [Compound 18]
target_of_assay: plants
endpoint_name: damage to plant, ALOMY
reported_measurement: 0

molecule: CN1CC(c2cc(C(F)(F)F)n(C)n2)C(C(=O)Nc2ccccc2F)C1=O (racemic) [Compound 9]
target_of_assay: plants
endpoint_name: damage to plant, ALOMY
reported_measurement: 0

molecule: CN1CC(c2cnn(C)c2C(F)(F)F)C(C(=O)Nc2cccc(F)c2F)C1=O (racemic) [Compound 25]
target_of_assay: plants
endpoint_name: damage to plant, ALOMY
reported_measurement: 0

For each of the molecules below, state damage to plant, ALOMY.
1. CCn1nc([C@@H]2CN(C)C(=O)[C@H]2C(=O)Nc2cccc(F)c2F)c2cccc(F)c21 [Compound 14]
2. CN1CC(c2cc(C(F)(F)F)n(C)n2)C(C(=O)Nc2cccc(F)c2C(F)(F)F)C1=O (racemic) [Compound 19]

Response:
1. 0
2. 0
